# target or test system: Retinoic acid receptor RXR-alpha (Homo sapiens)
# assay name: Agonist activity at human RXRalpha expressed in human HCT116 cells assessed as increase in RXRE-mediated transcription at 1000 nM incubated for 24 hrs by RXRE luciferase reporter gene assay relative to bexarotene
# Format: cell-based
Calls of active or inactive are those of the source. The rule behind the calls is not given here.
assay readout: Activity

As a guide, the following entries are already answered.
1. CCN(c1cnc(C(=O)O)cn1)c1cc2c(cc1C)C(C)(C)CCC2(C)C = Active
2. CCN(c1ccc2c(c1)C(C)(C)CCC2(C)C)c1ncc(C(=O)O)cn1 = 20 to 43%
3. CCN(c1ccc(C(=O)O)c(F)c1)c1ccc2c(c1)C(C)(C)CCC2(C)C = Active
4. CCN(c1ccc2c(c1)C(C)(C)CCC2(C)C)c1cnc(C(=O)O)cn1 = 20 to 43%

Lab note: next molecule to report on.
Any idea what Activity was measured for CCN(c1ccc(C(=O)O)cc1)c1cc2c(cc1C)C(C)(C)CCC2(C)C ?
Active

---

# target or test system: Retinoic acid receptor RXR-alpha (Homo sapiens)
# assay name: Agonist activity at human RXRalpha expressed in human HCT116 cells assessed as increase in RXRE-mediated transcription at 100 nM incubated for 24 hrs by RXRE luciferase reporter gene assay relative to bexarotene
# Type: cell-based
assay readout: Activity

1. CCN(c1ccc(C(=O)O)c(F)c1)c1ccc2c(c1)C(C)(C)CCC2(C)C = 16 to 32%
2. CCN(c1ccc(C(=O)O)cn1)c1cc2c(cc1C)C(C)(C)CCC2(C)C = 68 to 89%

Lab note: next compound to report on.
Any idea what Activity was measured for CCN(c1ncc(C(=O)O)cn1)c1cc2c(cc1C)C(C)(C)CCC2(C)C ?
68 to 89%

---

# Organism: Homo sapiens
# assay name: Selectivity index, ratio of agonist activity at human RARalpha expressed in HEK293 cells assessed as increase in RARE-mediated transcription relative to bexarotene to agonist activity at human RXRalpha expressed in human HCT116 cells assessed as increase in RXRE-mediated transcription relative to bexarotene
# Type: cell-based
assay readout: Ratio

As a guide, the following entries are already answered.
1. CCN(c1ncc(C(=O)O)cn1)c1cc2c(cc1C)C(C)(C)CCC2(C)C = 0.35 to 0.37
2. CCN(c1ccc2c(c1)C(C)(C)CCC2(C)C)c1ccc(C(=O)O)cn1 = > 0.5
3. CCN(c1ccc(C(=O)O)c(F)c1)c1ccc2c(c1)C(C)(C)CCC2(C)C = 0.35 to 0.37

Any idea what Ratio was measured for CCN(c1ccc(C(=O)O)c(F)c1)c1cc2c(cc1C)C(C)(C)CCC2(C)C ?
0.35 to 0.37

Any idea what Ratio was measured for CCN(c1ccc(C(=O)O)cc1)c1cc2c(cc1C)C(C)(C)CCC2(C)C ?
0.35 to 0.37

Any idea what Ratio was measured for CCN(c1ccc2c(c1)C(C)(C)CCC2(C)C)c1cnc(C(=O)O)cn1 ?
> 0.5

Any idea what Ratio was measured for CC1=C(/C=C/C(C)=C/C=C/C(C)=C/C(=O)O)C(C)(C)CCC1 ?
9.5

Any idea what Ratio was measured for CCN(c1cnc(C(=O)O)cn1)c1cc2c(cc1C)C(C)(C)CCC2(C)C ?
> 0.5

---

A collection of compounds and their measured Activity
# target or test system: Retinoic acid receptor RXR-alpha/oxysterols receptor LXR-alpha (Homo sapiens, UniProt P19793+Q13133)
# Sequence (P19793 whole entry): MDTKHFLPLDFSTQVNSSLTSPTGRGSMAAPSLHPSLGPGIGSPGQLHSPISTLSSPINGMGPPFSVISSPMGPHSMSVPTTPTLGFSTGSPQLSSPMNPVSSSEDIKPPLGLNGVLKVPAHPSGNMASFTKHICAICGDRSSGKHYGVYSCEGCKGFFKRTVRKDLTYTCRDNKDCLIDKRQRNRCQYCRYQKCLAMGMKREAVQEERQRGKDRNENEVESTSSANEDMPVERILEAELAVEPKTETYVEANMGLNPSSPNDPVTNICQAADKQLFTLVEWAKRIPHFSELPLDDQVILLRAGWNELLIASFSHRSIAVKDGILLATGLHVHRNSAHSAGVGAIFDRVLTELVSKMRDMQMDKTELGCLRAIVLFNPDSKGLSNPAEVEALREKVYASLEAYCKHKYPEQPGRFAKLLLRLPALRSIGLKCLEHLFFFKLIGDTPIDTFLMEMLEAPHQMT
# Sequence (Q13133 whole entry): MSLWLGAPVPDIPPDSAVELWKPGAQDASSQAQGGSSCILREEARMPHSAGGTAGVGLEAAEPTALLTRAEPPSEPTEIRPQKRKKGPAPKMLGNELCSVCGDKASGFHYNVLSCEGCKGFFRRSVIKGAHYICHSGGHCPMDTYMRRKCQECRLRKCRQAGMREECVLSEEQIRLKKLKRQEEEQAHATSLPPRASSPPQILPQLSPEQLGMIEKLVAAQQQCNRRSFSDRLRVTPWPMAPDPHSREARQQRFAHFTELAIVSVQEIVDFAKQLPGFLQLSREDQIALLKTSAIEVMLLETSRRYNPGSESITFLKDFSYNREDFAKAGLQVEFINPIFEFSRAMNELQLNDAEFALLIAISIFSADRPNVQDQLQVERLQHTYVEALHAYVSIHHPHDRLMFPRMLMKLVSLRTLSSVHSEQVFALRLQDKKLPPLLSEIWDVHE
# assay name: Agonist activity at human RXRalpha/LXRalpha expressed in human HCT116 cells assessed as reduction in SREBP-mediated transcription activity at 100 nM incubated for 24 hrs by luciferase reporter gene assay in presence of 100 nM LXR agonist TO901317 relative to bexarotene
# Format: cell-based
# Design: scale not given: the % may be the effect or the level left
# condition summary: 0.1 µM
Just the number please, in %, no unit attached.

1. CCN(c1cnc(C(=O)O)cn1)c1cc2c(cc1C)C(C)(C)CCC2(C)C = 29

Lab note: next compound to report on.
Any idea what Activity was measured for CCN(c1ccc2c(c1)C(C)(C)CCC2(C)C)c1cnc(C(=O)O)cn1 ?
33

---

A collection of molecules and their measured log10 of EC50
# target or test system: Retinoid X receptor (Homo sapiens, UniProt P28702+P48443+P19793)
# assay name: Agonist activity at human RXR binding domain and activation domain expressed in human HCT116 cells assessed as rexinoid activity incubated for 24 hrs by luciferase reporter gene based mammalian two-hybrid assay
# Type: cell-based
A difference of one corresponds to tenfold EC50; all values are log10 with EC50 in nM.

As a guide, the following entries are already answered.
1. C=C(c1ccc(S(=O)(=O)O)cc1)c1cc2c(cc1C)C(C)(C)CCC2(C)C = 4.26
2. CCN(c1cnc(C(=O)O)cn1)c1cc2c(cc1C)C(C)(C)CCC2(C)C = 2.47
3. CCN(c1ncc(C(=O)O)cn1)c1cc2c(cc1C)C(C)(C)CCC2(C)C = 1.26
4. CCN(c1ccc2c(c1)C(C)(C)CCC2(C)C)c1ncc(C(=O)O)cn1 = 1.61
5. CCN(c1ccc(C(=O)O)cc1)c1ccc2c(c1)C(C)(C)CCC2(C)C = 2.16
6. CCN(c1ccc2c(c1)C(C)(C)CCC2(C)C)c1cnc(C(=O)O)cn1 = 2.56
7. CCN(c1ccc(C(=O)O)c(F)c1)c1cc2c(cc1C)C(C)(C)CCC2(C)C = 1.53
8. CCN(c1ccc(C(=O)O)c(F)c1)c1ccc2c(c1)C(C)(C)CCC2(C)C = 2.10

Any idea what log10 of EC50 was measured for CCN(c1ccc2c(c1)C(C)(C)CCC2(C)C)c1ccc(C(=O)O)cn1 ?
1.14

Any idea what log10 of EC50 was measured for CCN(c1ccc(C(=O)O)cc1)c1cc2c(cc1C)C(C)(C)CCC2(C)C ?
0.90

Any idea what log10 of EC50 was measured for CCN(c1ccc(C(=O)O)cn1)c1cc2c(cc1C)C(C)(C)CCC2(C)C ?
1.14

---

# target or test system: Retinoic acid receptor RXR-alpha/oxysterols receptor LXR-alpha (Homo sapiens, UniProt P19793+Q13133)
# Sequence (P19793 whole entry): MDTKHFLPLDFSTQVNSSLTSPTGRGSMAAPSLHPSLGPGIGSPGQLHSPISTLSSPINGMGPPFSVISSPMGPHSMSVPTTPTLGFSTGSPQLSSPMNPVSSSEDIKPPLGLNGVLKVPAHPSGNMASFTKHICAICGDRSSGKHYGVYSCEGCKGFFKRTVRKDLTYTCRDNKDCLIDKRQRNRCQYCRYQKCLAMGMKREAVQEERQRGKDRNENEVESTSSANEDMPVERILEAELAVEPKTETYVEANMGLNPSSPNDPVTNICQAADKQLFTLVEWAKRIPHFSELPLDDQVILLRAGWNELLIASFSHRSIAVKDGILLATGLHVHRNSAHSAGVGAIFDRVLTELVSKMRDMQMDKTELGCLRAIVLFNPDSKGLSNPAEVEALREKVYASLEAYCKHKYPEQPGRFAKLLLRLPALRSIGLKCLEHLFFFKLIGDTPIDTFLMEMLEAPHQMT
# Sequence (Q13133 whole entry): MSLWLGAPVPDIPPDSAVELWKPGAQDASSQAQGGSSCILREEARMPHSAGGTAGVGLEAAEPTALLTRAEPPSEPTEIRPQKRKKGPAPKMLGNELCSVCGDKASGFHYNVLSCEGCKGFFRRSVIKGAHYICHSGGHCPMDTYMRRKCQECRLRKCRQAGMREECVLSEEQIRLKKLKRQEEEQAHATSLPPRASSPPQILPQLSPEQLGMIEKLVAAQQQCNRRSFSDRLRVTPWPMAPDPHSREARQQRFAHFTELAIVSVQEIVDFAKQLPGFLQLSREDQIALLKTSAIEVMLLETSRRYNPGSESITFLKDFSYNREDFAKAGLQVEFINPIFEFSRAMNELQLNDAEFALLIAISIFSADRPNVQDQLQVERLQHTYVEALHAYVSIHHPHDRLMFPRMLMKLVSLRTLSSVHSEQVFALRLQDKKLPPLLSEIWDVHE
# assay name: Agonist activity at human RXRalpha/LXRalpha expressed in human HCT116 cells assessed as reduction in SREBP-mediated transcription activity at 100 nM incubated for 24 hrs by luciferase reporter gene assay in presence of 100 nM LXR agonist TO901317 relative to bexarotene
# Assay type: cell-based
# Parameters: scale not given: the % may be the effect or the level left
# condition summary: 0.1 µM
A collection of molecules and their measured Activity

As a guide, the following entries are already answered.
1. CCN(c1ccc2c(c1)C(C)(C)CCC2(C)C)c1ncc(C(=O)O)cn1 = 13 to 17%
2. CCN(c1ncc(C(=O)O)cn1)c1cc2c(cc1C)C(C)(C)CCC2(C)C = 13 to 17%

Lab note: next molecule to report on.
Any idea what Activity was measured for CCN(c1ccc2c(c1)C(C)(C)CCC2(C)C)c1ccc(C(=O)O)cn1 ?
13 to 17%
